Recorded CC90 at 72 h by entry
test_details: Mammalian cell toxicity, MTT, Vero cells
Type: cell-based
assay_conditions: African green monkey, Vero cells, 72 h, MTT
observed_property: CC90 at 72 h (µM)

compound="O=C(CCl)NCCNC(=O)CCl [7a]" quantitative_readout=49.5
compound="O=C(CCl)NCCCCNC(=O)CCl [7c]" quantitative_readout=77.6

* * *

// pIC50 lookup, one value per entry
System: L. (L.) amazonensis intracellular amastigotes
test_details: Intracellular amastigotes of L. (L.) amazonensis in THP-1 macrophages
Format: cell-based, Leishmania (Leishmania) amazonensis
assay_conditions: Leishmania amazonensis; THP-1 macrophages, 72 h, 58.6% cells infected before treatment
pIC50: −log10 of the molar value.
observed_property: pIC50

molecule=c1ccc(CNCCNCc2ccccc2)cc1 observed_property=pIC50 quantitative_readout=4.31
molecule="C[C@@H]1[C@H](O)[C@@H](C)/C=C/C=C/C=C/C=C/C=C/C=C/C=C/[C@H](O[C@@H]2O[C@H](C)[C@@H](O)[C@H](N)[C@@H]2O)C[C@@H]2O[C@](O)(C[C@@H](O)C[C@@H](O)[C@H](O)CC[C@@H](O)C[C@@H](O)CC(=O)O[C@H]1C)C[C@H](O)[C@H]2C(=O)O [AmB, Amphotericin B, reference compound]" observed_property=pIC50 quantitative_readout=7.09

* * *

# T. cruzi epimastigotes SI values compiled below
Test system: T. cruzi epimastigotes
test_details: In vitro activity on T. cruzi epimastigotes, counting viable parasites
Type: cell-based, Trypanosoma cruzi
assay_conditions: selectivity index CC50/IC50
observed_property: T. cruzi epimastigotes SI

molecule=O=C(CCl)NCCCNC(=O)CCl result=32.35
molecule=O=C(CCl)NCCCCNC(=O)CCl result=0.68
molecule=O=C(CCl)NCCNC(=O)CCl result=0.38
molecule="O=C1CSC(c2cccnc2)N1CCCCN1C(=O)CSC1c1cccnc1 (stereo not shown)" result=0.32
molecule="O=C1CSC(c2ccccc2)N1CCCCN1C(=O)CSC1c1ccccc1 (stereo not shown)" result=>1.01
molecule=c1cc(CNCCNCc2ccncc2)ccn1 result=>0.86
molecule=c1cncc(CNCCCCNCc2cccnc2)c1 result=>1
molecule="CC1CS(=O)(=O)CCN1/N=C/c1ccc([N+](=O)[O-])o1 (stereo not shown) [Nif, Nifurtimox, reference compound]" result=28.23
molecule="O=C1CSC(c2ccccc2)N1CCN1C(=O)CSC1c1ccccc1 (stereo not shown)" result=0.72
molecule=c1ccc(CNCCCCNCc2ccccn2)nc1 result=>0.35

* * *

test_details: Mammalian cell toxicity, MTT, THP-1 cells
Assay type: cell-based
assay_conditions: human, THP-1 cells transformed into adherent macrophages with PMA; 72 h, MTT
observed_property: CC90 at 72 h

substance_smiles=O=C(CCl)N(CCCCN(Cc1ccccc1)C(=O)CCl)Cc1ccccc1 observed_property="CC90 at 72 h" result="> 208 µM"

* * *

# pIC50 values compiled below
Tested on: T. cruzi epimastigotes
test_details: In vitro activity on T. cruzi epimastigotes, counting viable parasites
Assay type: cell-based, Trypanosoma cruzi
assay_conditions: Trypanosoma cruzi; 72 h, 28 °C; read-out: T. cruzi epimastigotes IC50 ± SD
Protocol: Epimastigotes of T. cruzi and promastigotes forms of L. […] The inhibition of parasite growth was microscopically determined by counting viable (live) parasites in a haemocytometer using yellow eosin as vital dye; live parasites (uncolored) and dead (orange) were counted. […] The data were calculated by linear regression using the software ([…]; GO Business Solution, Guildford, UK). The selectivity index (SI) was calculated dividing CC50/IC50. […]
pIC50: −log10 of the molar value.
observed_property: pIC50

compound="O=C(CCl)N(CCCCN(Cc1ccccc1)C(=O)CCl)Cc1ccccc1 [compound 8]" observed_property=pIC50 measurement_qualifier== quantitative_readout=7.70
compound="O=C(CCl)NCCNC(=O)CCl [7a]" observed_property=pIC50 measurement_qualifier== quantitative_readout=4.18
compound="O=C1CSC(c2ccncc2)N1CCN1C(=O)CSC1c1ccncc1 (centres unmarked) [6h]" observed_property=pIC50 measurement_qualifier=< quantitative_readout=3.60
compound="O=C1CSC(c2ccncc2)N1CCCCN1C(=O)CSC1c1ccncc1 (centres unmarked) [6k]" observed_property=pIC50 measurement_qualifier=< quantitative_readout=3.60
compound="c1ccc(CNCCCNCc2ccccc2)cc1 [5b]" observed_property=pIC50 measurement_qualifier== quantitative_readout=5.27
compound="O=C1CSC(c2ccccn2)N1CCN1C(=O)CSC1c1ccccn1 (centres unmarked) [6f]" observed_property=pIC50 measurement_qualifier== quantitative_readout=3.79
compound="CC1CS(=O)(=O)CCN1/N=C/c1ccc([N+](=O)[O-])o1 (centres unmarked) [Nif, Nifurtimox, reference compound]" observed_property=pIC50 measurement_qualifier== quantitative_readout=5.57
compound="O=C1CSC(c2cccnc2)N1CCCCN1C(=O)CSC1c1cccnc1 (centres unmarked) [6j]" observed_property=pIC50 measurement_qualifier== quantitative_readout=3.63
compound="O=C1CSC(c2ccccc2)N1CCCCN1C(=O)CSC1c1ccccc1 (centres unmarked) [6c]" observed_property=pIC50 measurement_qualifier=< quantitative_readout=3.60
compound="O=C(CCl)NCCCCNC(=O)CCl [7c]" observed_property=pIC50 measurement_qualifier== quantitative_readout=4.27
compound="c1cncc(CNCCCCNCc2cccnc2)c1 [5j]" observed_property=pIC50 measurement_qualifier=< quantitative_readout=3.60
compound="O=C1CSC(c2ccccn2)N1CCCCN1C(=O)CSC1c1ccccn1 (centres unmarked) [6i]" observed_property=pIC50 measurement_qualifier=< quantitative_readout=3.60
compound="c1ccc(CNCCCCNCc2ccccn2)nc1 [5i]" observed_property=pIC50 measurement_qualifier=< quantitative_readout=3.60
compound="c1cc(CNCCNCc2ccncc2)ccn1 [5h]" observed_property=pIC50 measurement_qualifier=< quantitative_readout=3.60
compound="O=C1CSC(c2cccnc2)N1CCN1C(=O)CSC1c1cccnc1 (centres unmarked) [6g]" observed_property=pIC50 measurement_qualifier=< quantitative_readout=3.60
compound="O=C(CCl)NCCCNC(=O)CCl [7b]" observed_property=pIC50 measurement_qualifier== quantitative_readout=6.00
compound="O=C1CSC(c2ccccc2)N1CCN1C(=O)CSC1c1ccccc1 (centres unmarked) [6a]" observed_property=pIC50 measurement_qualifier== quantitative_readout=3.62
compound="COc1ccc(CNCCNCc2ccc(OC)c(O)c2)cc1O [5d]" observed_property=pIC50 measurement_qualifier== quantitative_readout=6.06
compound="COc1ccc(CNCCCCNCc2ccc(OC)c(O)c2)cc1O [5e]" observed_property=pIC50 measurement_qualifier== quantitative_readout=5.91
compound="c1ccc(CNCCNCc2ccccc2)cc1 [5a, N^1,N^2-dibenzylethane-1,2-diamine]" observed_property=pIC50 measurement_qualifier== quantitative_readout=5.60
